assay: NCI Yeast Anticancer Drug Screen. Data for the bub3 strain (AID 167); details: S. cerevisiae bub3 mutant strain, at 5.0 µM (retest, dose inferred, filed as 0.5)
About 79,000 compounds went through this panel and 15% of them were active in at least one assay; those are over-represented in the sample as a whole. The source made the active and inactive calls. Cut-off read from the data, not from the text of the source: active = growth inhibition above about 70%; inactive = the rest.
Permitted responses: active, inactive

Record excerpt, results attached:
> print(dat)
                                   molecule     class
1        O=C1C=CC(=O)N1CCCCCCN1C(=O)C=CC1=O  inactive
2  CCOC(=O)C(=O)Nc1nc2c(s1)C(=O)c1ccccc1C2=O  inactive
3          C[n+]1c(/C=C\c2ccccc2)sc2ccccc21  inactive
4  O=C(CNS(=O)(=O)Cc1ccccc1)NCC(=O)NNc1ccccc1  inactive
5  Cc1n(CC(C)C)c2c([n+]1CC(=O)c1ccc([N+](=O)[O-])cc1)C(=O)c1ccccc1C2=O    active

Consider the record given below.
Which outcome did this test record for the molecule CCCCCCCC/C=C\CCCCCCCC(=O)O (tested in a mixture with another compound) ?
inactive
